Hello, the source for this data is ChEMBL document CHEMBL1154649, in case you need it.

Please provide measured pIC50 for the entries that follow.
Tested on: Hepatitis B virus
protocol: Antiviral activity against HBV assessed as inhibition of viral surface antigen secretion
Type: functional, organism-based
pIC50: −log10 of the molar value.

C[C@H](C[C@H](OC(=O)C1CC1)[C@@H](OC(=O)C1CC1)C(C)(C)OC(=O)C1CC1)C1=C2C[C@H](OC(=O)C3CC3)[C@H]3[C@@]4(C)CCC(=O)C(C)(C)[C@@H]4CC[C@]3(C)[C@@]2(C)CC1: < 2.68
CC(=O)OC(C)(C)[C@H](OC(=O)C(C)C)[C@H](C[C@@H](C)C1=C2C[C@H](OC(=O)C(C)C)[C@H]3[C@@]4(C)CCC(=O)C(C)(C)[C@@H]4CC[C@]3(C)[C@@]2(C)CC1)OC(=O)C(C)C: < 2.72
CC(C)CC(=O)O[C@@H](C[C@@H](C)C1=C2C[C@H](OC(=O)CC(C)C)[C@H]3[C@@]4(C)CCC(=O)C(C)(C)[C@@H]4CC[C@]3(C)[C@@]2(C)CC1)[C@@H](OC(=O)CC(C)C)C(C)(C)OC(=O)CC(C)C: < 2.70

Could you report pIC50 for every entry in the following list?
1. C[C@H](C[C@H](OC(=O)c1cccc([N+](=O)[O-])c1)[C@@H](OC(=O)c1cccc([N+](=O)[O-])c1)C(C)(C)OC(=O)c1cccc([N+](=O)[O-])c1)C1=C2C[C@H](OC(=O)c3cccc([N+](=O)[O-])c3)[C@H]3[C@@]4(C)CCC(=O)C(C)(C)[C@@H]4CC[C@]3(C)[C@@]2(C)CC1
2. C[C@H](C[C@H](OC(=O)c1ccc(Cl)cc1)[C@@H](OC(=O)c1ccc(Cl)cc1)C(C)(C)OC(=O)c1ccc(Cl)cc1)C1=C2C[C@H](OC(=O)c3ccc(Cl)cc3)[C@H]3[C@@]4(C)CCC(=O)C(C)(C)[C@@H]4CC[C@]3(C)[C@@]2(C)CC1

["< 2.96", 3.32]

So what does the record say about pIC50 for CC(=O)OC(C)(C)[C@H](OC(=O)c1ccccc1)[C@H](C[C@@H](C)C1=C2C[C@H](OC(=O)c3ccccc3)[C@H]3[C@@]4(C)CCC(=O)C(C)(C)[C@@H]4CC[C@]3(C)[C@@]2(C)CC1)OC(=O)c1ccccc1 ?
< 2.77

###

protocol: Cytotoxicity against human HepG2(2.2.15) cells
Type: cell-based
recordedMetric: CC50

Could you report CC50 for every entry in the following list?
1. C[C@H](C[C@H](OC(=O)/C=C/c1ccccc1)[C@@H](OC(=O)/C=C/c1ccccc1)C(C)(C)OC(=O)/C=C/c1ccccc1)C1=C2C[C@H](OC(=O)/C=C/c3ccccc3)[C@H]3[C@@]4(C)CCC(=O)C(C)(C)[C@@H]4CC[C@]3(C)[C@@]2(C)CC1
2. CCOCC(=O)OC(C)(C)[C@H](OC(C)=O)[C@H](C[C@@H](C)C1=C2C[C@H](OC(C)=O)[C@H]3[C@@]4(C)CCC(=O)C(C)(C)[C@@H]4CC[C@]3(C)[C@@]2(C)CC1)OC(C)=O
3. C[C@H](C[C@H](O[Si](C)(C)C)[C@@H](O[Si](C)(C)C)C(C)(C)O[Si](C)(C)C)C1=C2C[C@H](O[Si](C)(C)C)[C@H]3[C@@]4(C)CCC(=O)C(C)(C)[C@@H]4CC[C@]3(C)[C@@]2(C)CC1

1. > 1200 µM
2. > 2800 µM
3. 51 µM

###

protocol: Drug level in Sprague-Dawley rat blood at 10 mg/kg, ig after 0.083 hrs
Assay type: ADME, organism-based
Set-up: dose 10 mg/kg, route intragastric
condition: po, read-out: Drug uptake
recordedMetric: concentration at 0.083 h (ng/mL)
Numbers only, in ng/mL.

So what does the record say about concentration at 0.083 h for CC(=O)O[C@@H](C[C@@H](C)C1=C2C[C@H](OC(C)=O)[C@H]3[C@@]4(C)CCC(=O)C(C)(C)[C@@H]4CC[C@]3(C)[C@@]2(C)CC1)[C@@H](OC(C)=O)C(C)(C)OC(C)=O ?
8.6

###

protocol: Cmax in Sprague-Dawley rat at 10 mg/kg, ig
Format: ADME, organism-based
Set-up: dose 10 mg/kg, route intragastric
condition: in vivo, po
recordedMetric: Cmax (ng/mL)
One number for each entry, in ng/mL.

So what does the record say about Cmax for CC(=O)O[C@@H](C[C@@H](C)C1=C2C[C@H](OC(C)=O)[C@H]3[C@@]4(C)CCC(=O)C(C)(C)[C@@H]4CC[C@]3(C)[C@@]2(C)CC1)[C@@H](OC(C)=O)C(C)(C)OC(C)=O ?
383

###

protocol: Drug level in Sprague-Dawley rat blood at 2 mg/kg, iv after 0.5 hrs
Format: ADME, organism-based
Parameters: dose 2 mg/kg, route intravenous
condition: read-out: Drug uptake
recordedMetric: concentration at 0.5 h (ng/mL)
One number for each entry, in ng/mL.

So what does the record say about concentration at 0.5 h for CC(=O)O[C@@H](C[C@@H](C)C1=C2C[C@H](OC(C)=O)[C@H]3[C@@]4(C)CCC(=O)C(C)(C)[C@@H]4CC[C@]3(C)[C@@]2(C)CC1)[C@@H](OC(C)=O)C(C)(C)OC(C)=O ?
246

###

Test system: Rattus norvegicus
protocol: AUC in Sprague-Dawley rat at 2 mg/kg, iv
Format: ADME, organism-based, Plasma
Parameters: dose 2 mg/kg, route intravenous
condition: in vivo
recordedMetric: AUC (ng·h/mL)
Give bare numbers, in ng·h/mL.

So what does the record say about AUC for CC(=O)O[C@@H](C[C@@H](C)C1=C2C[C@H](OC(C)=O)[C@H]3[C@@]4(C)CCC(=O)C(C)(C)[C@@H]4CC[C@]3(C)[C@@]2(C)CC1)[C@@H](OC(C)=O)C(C)(C)OC(C)=O ?
510

###

Please provide measured CC50 for the entries that follow.
protocol: Cytotoxicity against human HepG2(2.2.15) cells
Type: cell-based

Past entries and their recorded results:
CCCCCCCC(=O)O[C@@H](C[C@@H](C)C1=C2C[C@H](OC(=O)CCCCCCC)[C@H]3[C@@]4(C)CCC(=O)C(C)(C)[C@@H]4CC[C@]3(C)[C@@]2(C)CC1)[C@@H](OC(=O)CCCCCCC)C(C)(C)OC(=O)CCCCCCC: > 1600 µM
C[C@H](C[C@H](OC(=O)CN1C(=O)c2ccccc2C1=O)[C@@H](OC(=O)CN1C(=O)c2ccccc2C1=O)C(C)(C)OC(=O)CN1C(=O)c2ccccc2C1=O)C1=C2C[C@H](OC(=O)CN3C(=O)c4ccccc4C3=O)[C@H]3[C@@]4(C)CCC(=O)C(C)(C)[C@@H]4CC[C@]3(C)[C@@]2(C)CC1: > 1300 µM
CC(=O)O[C@@H](C[C@@H](C)[C@]12CC[C@@]3(C)[C@@]1(C[C@H](OC(C)=O)[C@H]1[C@@]4(C)CCC(=O)C(C)(C)[C@@H]4CC[C@@]13C)O2)[C@@H](OC(C)=O)C(C)(C)OC(C)=O: > 4000 µM

Could you report CC50 for every entry in the following list?
1. CC(C)CC(=O)O[C@@H](C[C@@H](C)C1=C2C[C@H](OC(=O)CC(C)C)[C@H]3[C@@]4(C)CCC(=O)C(C)(C)[C@@H]4CC[C@]3(C)[C@@]2(C)CC1)[C@@H](OC(=O)CC(C)C)C(C)(C)OC(=O)CC(C)C
2. CC(=O)OC(C)(C)[C@H](OC(=O)c1ccccc1)[C@H](C[C@@H](C)C1=C2C[C@H](OC(=O)c3ccccc3)[C@H]3[C@@]4(C)CCC(=O)C(C)(C)[C@@H]4CC[C@]3(C)[C@@]2(C)CC1)OC(=O)c1ccccc1

> 2000 µM
> 1700 µM

###

Test system: Hepatitis B virus
protocol: Antiviral activity against HBV assessed as inhibition of viral early antigen secretion
Type: functional, organism-based
recordedMetric: IC50

Past entries and their recorded results:
C[C@H](C[C@H](OC(=O)CCC1CCCCC1)[C@@H](OC(=O)CCC1CCCCC1)C(C)(C)OC(=O)CCC1CCCCC1)C1=C2C[C@H](OC(=O)CCC3CCCCC3)[C@H]3[C@@]4(C)CCC(=O)C(C)(C)[C@@H]4CC[C@]3(C)[C@@]2(C)CC1: > 1700 µM
CCCCCCCC(=O)O[C@@H](C[C@@H](C)C1=C2C[C@H](OC(=O)CCCCCCC)[C@H]3[C@@]4(C)CCC(=O)C(C)(C)[C@@H]4CC[C@]3(C)[C@@]2(C)CC1)[C@@H](OC(=O)CCCCCCC)C(C)(C)OC(=O)CCCCCCC: > 1600 µM
CC(=O)O[C@@H](C[C@@H](C)C1=C2C[C@H](OC(C)=O)[C@H]3[C@@]4(C)CCC(=O)C(C)(C)[C@@H]4CC[C@]3(C)[C@@]2(C)CC1)[C@@H](OC(C)=O)C(C)(C)OC(C)=O: 11 µM
C[C@H](C[C@H](OC(=O)[C@H]1CCC(=O)O1)[C@@H](OC(=O)[C@H]1CCC(=O)O1)C(C)(C)OC(=O)[C@@H]1CCC(=O)O1)C1=C2C[C@H](OC(=O)[C@@H]3CCC(=O)O3)[C@H]3[C@@]4(C)CCC(=O)C(C)(C)[C@@H]4CC[C@]3(C)[C@@]2(C)CC1: > 1600 µM
C[C@H](C[C@H](OC(=O)c1cccc([N+](=O)[O-])c1)[C@@H](OC(=O)c1cccc([N+](=O)[O-])c1)C(C)(C)OC(=O)c1cccc([N+](=O)[O-])c1)C1=C2C[C@H](OC(=O)c3cccc([N+](=O)[O-])c3)[C@H]3[C@@]4(C)CCC(=O)C(C)(C)[C@@H]4CC[C@]3(C)[C@@]2(C)CC1: > 1100 µM

Could you report IC50 for every entry in the following list?
1. C[C@H](C[C@H](OC(=O)c1ccccc1)[C@@H](OC(=O)c1ccccc1)C(C)(C)OC(=O)c1ccccc1)[C@]12CC[C@@]3(C)[C@@]1(C[C@H](OC(=O)c1ccccc1)[C@H]1[C@@]4(C)CCC(=O)C(C)(C)[C@@H]4CC[C@@]13C)O2
2. CCC(=O)O[C@@H](C[C@@H](C)C1=C2C[C@H](OC(=O)CC)[C@H]3[C@@]4(C)CCC(=O)C(C)(C)[C@@H]4CC[C@]3(C)[C@@]2(C)CC1)[C@@H](OC(=O)CC)C(C)(C)OC(C)=O
3. CCC(=O)O[C@@H](C[C@@H](C)[C@]12CC[C@@]3(C)[C@@]1(C[C@H](OC(=O)CC)[C@H]1[C@@]4(C)CCC(=O)C(C)(C)[C@@H]4CC[C@@]13C)O2)[C@@H](OC(=O)CC)C(C)(C)OC(=O)CC
4. C[C@H](C[C@H](O[Si](C)(C)C)[C@@H](O[Si](C)(C)C)C(C)(C)O[Si](C)(C)C)C1=C2C[C@H](O[Si](C)(C)C)[C@H]3[C@@]4(C)CCC(=O)C(C)(C)[C@@H]4CC[C@]3(C)[C@@]2(C)CC1
5. CC(=O)OC(C)(C)[C@H](OC(=O)C(C)C)[C@H](C[C@@H](C)C1=C2C[C@H](OC(=O)C(C)C)[C@H]3[C@@]4(C)CCC(=O)C(C)(C)[C@@H]4CC[C@]3(C)[C@@]2(C)CC1)OC(=O)C(C)C

1: 1100 µM; 2: 86 µM; 3: 1300 µM; 4: > 51 µM; 5: 1500 µM

Could you report IC50 for every entry in the following list?
1. CCCC(=O)O[C@@H](C[C@@H](C)[C@]12CC[C@@]3(C)[C@@]1(C[C@H](OC(=O)CCC)[C@H]1[C@@]4(C)CCC(=O)C(C)(C)[C@@H]4CC[C@@]13C)O2)[C@@H](OC(=O)CCC)C(C)(C)OC(=O)CCC
2. C[C@H](C[C@H](OC(=O)c1ccccc1I)[C@@H](OC(=O)c1ccccc1I)C(C)(C)OC(=O)c1ccccc1I)C1=C2C[C@H](OC(=O)c3ccccc3I)[C@H]3[C@@]4(C)CCC(=O)C(C)(C)[C@@H]4CC[C@]3(C)[C@@]2(C)CC1
3. CCCCC(=O)O[C@@H](C[C@@H](C)C1=C2C[C@H](OC(=O)CCCC)[C@H]3[C@@]4(C)CCC(=O)C(C)(C)[C@@H]4CC[C@]3(C)[C@@]2(C)CC1)[C@@H](OC(=O)CCCC)C(C)(C)OC(=O)CCCC
4. C[C@H](C[C@H](OC(=O)/C=C/c1ccccc1)[C@@H](OC(=O)/C=C/c1ccccc1)C(C)(C)OC(=O)/C=C/c1ccccc1)C1=C2C[C@H](OC(=O)/C=C/c3ccccc3)[C@H]3[C@@]4(C)CCC(=O)C(C)(C)[C@@H]4CC[C@]3(C)[C@@]2(C)CC1
5. C[C@H](C[C@H](OC(=O)CN1C(=O)c2ccccc2C1=O)[C@@H](OC(=O)CN1C(=O)c2ccccc2C1=O)C(C)(C)OC(=O)CN1C(=O)c2ccccc2C1=O)C1=C2C[C@H](OC(=O)CN3C(=O)c4ccccc4C3=O)[C@H]3[C@@]4(C)CCC(=O)C(C)(C)[C@@H]4CC[C@]3(C)[C@@]2(C)CC1
6. CCCC(=O)O[C@@H](C[C@@H](C)C1=C2C[C@H](OC(=O)CCC)[C@H]3[C@@]4(C)CCC(=O)C(C)(C)[C@@H]4CC[C@]3(C)[C@@]2(C)CC1)[C@@H](OC(=O)CCC)C(C)(C)OC(=O)CCC

1: > 1900 µM; 2: > 1400 µM; 3: > 1400 µM; 4: > 1200 µM; 5: > 1300 µM; 6: 1800 µM

Could you report IC50 for every entry in the following list?
1. CCC(=O)O[C@@H](C[C@@H](C)C1=C2C[C@H](OC(=O)CC)[C@H]3[C@@]4(C)CCC(=O)C(C)(C)[C@@H]4CC[C@]3(C)[C@@]2(C)CC1)[C@@H](OC(=O)CC)C(C)(C)OC(=O)CC
2. C[C@H](C[C@H](OC(=O)c1ccc(Cl)cc1Cl)[C@@H](OC(=O)c1ccc(Cl)cc1Cl)C(C)(C)OC(=O)c1ccc(Cl)cc1Cl)C1=C2C[C@H](OC(=O)c3ccc(Cl)cc3Cl)[C@H]3[C@@]4(C)CCC(=O)C(C)(C)[C@@H]4CC[C@]3(C)[C@@]2(C)CC1

1. > 1900 µM
2. > 1000 µM
